Target sequence: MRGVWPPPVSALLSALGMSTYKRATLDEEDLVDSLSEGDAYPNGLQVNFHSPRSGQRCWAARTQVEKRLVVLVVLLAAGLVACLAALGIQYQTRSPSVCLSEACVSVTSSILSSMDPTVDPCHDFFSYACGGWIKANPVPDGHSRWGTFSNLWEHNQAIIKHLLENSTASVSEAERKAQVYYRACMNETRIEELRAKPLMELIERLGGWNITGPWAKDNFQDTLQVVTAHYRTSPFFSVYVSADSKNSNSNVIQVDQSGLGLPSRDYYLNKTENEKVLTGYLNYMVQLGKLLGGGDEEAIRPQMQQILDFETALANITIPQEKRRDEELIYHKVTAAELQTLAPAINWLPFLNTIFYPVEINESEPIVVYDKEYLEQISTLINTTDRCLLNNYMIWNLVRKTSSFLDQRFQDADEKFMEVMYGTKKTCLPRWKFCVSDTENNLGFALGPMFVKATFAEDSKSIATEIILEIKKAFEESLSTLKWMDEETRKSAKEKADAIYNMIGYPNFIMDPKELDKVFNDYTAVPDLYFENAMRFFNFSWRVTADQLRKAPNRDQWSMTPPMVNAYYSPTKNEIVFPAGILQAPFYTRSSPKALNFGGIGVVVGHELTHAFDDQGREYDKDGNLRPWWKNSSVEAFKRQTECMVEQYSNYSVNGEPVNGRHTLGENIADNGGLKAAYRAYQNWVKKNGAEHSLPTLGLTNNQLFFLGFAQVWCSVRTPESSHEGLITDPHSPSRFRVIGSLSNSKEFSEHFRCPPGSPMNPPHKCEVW
pIC50: −log10 of the molar value. *1 amine or outer side, *2 acyl side, *3 side chain or, on linkers, in order; H or OH if unused. Where a SMILES comes first, the peptide text is derived from it. The star is where a group is joined. Suc = O=C(CCC(=O)[*:2])[*:1]; NHOH = ON*

compound: CC[C@H](C)[C@H](NC(=O)CCC(=O)O)C(=O)N[C@H](C(=O)N[C@@H](Cc1c[nH]c2ccccc12)C(=O)NO)[C@@H](C)CC [Example 10] (Suc-Ile-Ile-Trp-{NHOH})
pIC50: 5.33
